- Tested on: U2OS
- measurement-notes: cell viability relative to DMSO; higher = less toxic
- condition-info: 72 h; 10000 nM
For each of the molecules below, state its cell viability.
Reply with a number, then the unit it belongs to.

In the examples that follow, each entry is paired with its recorded cell viability.
CNNCc1ccc(C(=O)NC(C)C)cc1 [procarbazine] : 106%
O=C(NCCN1CCCCC1)c1ccc(I)cc1 [N-[2-(piperidinylamino)ethyl]-4-iodobenzamide] : 95.5%
COc1ccc(CCNCC(O)COc2cccc(C)c2)cc1OC (stereo not drawn) [bevantolol] : 99.8%
CN(C)[C@@H]1C(O)=C(C(N)=O)C(=O)[C@@]2(O)C(O)=C3C(=O)c4c(O)cccc4[C@@](C)(O)[C@H]3C[C@@H]12 [tetracycline] : 97.2%
C[C@@H](C(=O)O)c1ccc(-c2ccccc2)c(F)c1 (racemic) [flurbiprofen-(+/-)] : 96.4%

Hi! Can you tell me cell viability for each of these molecules?
1. COc1cc(C[C@H](C)[C@H](C)Cc2ccc3c(c2)OCO3)ccc1O [macelignan]
2. CN/C(=N\S(=O)(=O)c1ccc(Cl)cc1)N1C[C@H](c2ccccc2)C(c2ccc(Cl)cc2)=N1 (racemic) [SLV-319-(+/-)]
3. CCNC(=O)NS(=O)(=O)c1sc(CC(C)C)cc1-c1ccc(Cn2c(-c3ccccc3)nc(OC)c2C=O)cc1 [AVE-0991]

91.5%
93.1%
102%

###

For each of the molecules below, state its drug sensitivity score.
- Tested on: U2OS
- measurement-notes: drug sensitivity score (DSS) for viability; higher = more toxic; extreme values may be limits of the assay
- condition-info: 72 h
Numbers only.

In the examples that follow, each entry is paired with its recorded drug sensitivity score.
Cc1ccc(NC(=O)c2ccc(CN3CCN(C)CC3)cc2)cc1Nc1nccc(-c2cccnc2)n1 [imatinib] : 0
COc1ccc(C2CC(c3c(O)cc(C)oc3=O)=NCCS2)c(OC)c1 (centres undefined) : 7.1

Hi! Can you tell me drug sensitivity score for each of these molecules?
1. C[C@]12C=CC(=O)C=C1CC[C@@H]1[C@@H]2CC[C@]2(C)OC(=O)CC[C@@H]12 [Testolactone]
2. C[C@@H](CN1CC(=O)NC(=O)C1)N1CC(=O)NC(=O)C1 [dexrazoxane]
3. COC(=O)[C@H](Cc1ccccc1)NC(=O)[C@@H](N)CC(=O)O [aspartame]
4. N#Cc1cn([C@@H]2O[C@H](CO)[C@@H](O)[C@H]2O)c2ncnc(N)c12 [toyocamycin]
5. O=[N+]([O-])c1cc(O)c(O)c([N+](=O)[O-])c1 [OR-486]

0
0
0
34.2
0

###

- System: Calu-3
- measurement-notes: drug sensitivity score (DSS) for viability; higher = more toxic; extreme values may be limits of the assay
- condition-info: 72 h
For each of the compounds below, state its drug sensitivity score.
Numbers only.

In the examples that follow, each entry is paired with its recorded drug sensitivity score.
O=C(NCc1ccc(OC(F)(F)F)cc1)C1c2ccccc2C(=O)N1C1CCOCC1 (stereo not drawn) [NAV-26] : 0
CCC(C)(CN(C)C)OC(=O)c1ccccc1 (stereo not drawn) [amyleine] : 0
CCCCCCCCCCCCCCCCCCCCCC(=O)Nc1ccn([C@@H]2O[C@H](CO)[C@@H](O)[C@@H]2O)c(=O)n1 [enocitabine] : 0
Cc1cc(/C=C/c2ccc3cc(N(C)C)ccc3[n+]2C)c(C)n1-c1ccccc1 [pyrvinium-pamoate] : 9.9
Cc1cc2c(N3CCCC3)nc(N3CCCC3)nc2n1C : 0
NC[C@H]1CC[C@H](C(=O)O)CC1 [tranexamic-acid] : 0
CNC(=O)c1cnn(-c2nc(N)c3ncn([C@@H]4O[C@H](CO)[C@@H](O)[C@H]4O)c3n2)c1 [regadenoson] : 0

Then there is this compound:
Quick note, drug sensitivity score for CC(C)[C@]12O[C@H]1[C@@H]1O[C@]13[C@]1(O[C@H]1C[C@H]1C4=C(CC[C@@]13C)C(=O)OC4)[C@@H]2O [triptolide] landed at 27.1
